Experiment: Pharmacokinetic study of TBN enteric-coated tablets (Example 25 method) and intravenous TBN in beagle dogs
Assay type: in vivo
Conditions: both sexes, dog, blood; beagle dogs, intravenous 6 mg · kg^−1, Mean

>  <smiles-record>
Cc1nc(C)c(/C=[N+](\[O-])C(C)(C)C)nc1C

>  <units-text>
ng·h/mL

>  <AUC(0-inf)>
3560

$$$$

====

Experiment: Bioavailability test: pharmacokinetic study of TBN (API) and enteric-coated tablets in beagle dogs
Type: in vivo
Conditions: beagle, dog, blood, po, 175 mg, oral gavage, Average of 3 animals, read-out: AUC(0-t)
Description: (10) Bioavailability test: Pharmacokinetic study of TBN (API) and enteric-coated tablets in beagle dogs 6 beagle dogs were randomly divided into 2 groups, each group having 3 animals. Each test animal was given with TBN (API) at a dosage of 175 mg, or 1 enteric-coated tablet with a specification of 175 mg prepared following the method in Example 17 by oral gavage. The blood sample was collected at various times (0.08, 0.25, 0.5, 1, 1.5, 2, 4, 8, 12, and 24 h), and analyzed by LC-MS/MS. […]
readout-kind: AUC(0-t) (ng·h/mL)

>  <smiles-record>
Cc1nc(C)c(/C=[N+](\[O-])C(C)(C)C)nc1C

>  <readout-kind>
AUC(0-t)

>  <reported>
9580

$$$$
